The measured values listed here are drawn from the Deep4Chem optical property database.

assay: solvent given as SMILES; details: in CN(C)C=O
Listed next: entries and their corresponding emission maximum.
Please answer using a numeric value trailed by its unit.

// below: answered compounds
Any idea what emission maximum was measured for `CN(C)c1ccc(-c2ccc(-c3cc(N4CCCCC4)c(C#N)c4c3-c3ccccc3CC4)s2)cc1` ?
590 nm

For `F[B-]1(F)OC(c2ccccc2)=Nc2sc(-c3ccccc3)n[n+]21` , what is its reported emission maximum?
419 nm

Next:
What does the record list as emission maximum for `CSc1sc(C(=O)c2ccccc2)c2nn[nH]c(=O)c12` ?
492 nm

State the recorded emission maximum for this entry: `CCCCn1c2c(-c3ccc(N(c4ccccc4)c4ccccc4)cc3)cc(C#N)cc2c2cc(C#N)cc(-c3ccc(N(c4ccccc4)c4ccccc4)cc3)c21`
476 nm

GET /values?readout=emission maximum&item= `COC(=O)c1cc(=O)n(C)c2cc(-c3cc4c5c(c3)CCCN5CCC4)sc12`
509 nm
